test system: Pseudomonas aeruginosa W19; assay: MIC on clinically isolated bacteria; type: cell-based; details: read-out: MIC
Entries and their MIC values follow.
Number only, in µg/mL; omit the unit.

Solved entries:
- CC1(C)[C@H](NC(=O)/C(=N\O[C@@H](COc2ccc3c(c2)CN(/C(=N\[C@@H]2CCCNC2)N[C@@H]2CCCNC2)C3)C(=O)O)c2csc(N)n2)C(=O)N1OS(=O)(=O)O: 0.5
- CC1(C)[C@H](NC(=O)/C(=N\O[C@@H](COc2ccc3c(c2)CN(C(=N)NCCN)C3)C(=O)O)c2csc(N)n2)C(=O)N1OS(=O)(=O)O: 1
- CC1(C)[C@H](NC(=O)/C(=N\O[C@@H](COc2ccc3c(c2)CN(C(=N)NOCCN)C3)C(=O)O)c2csc(N)n2)C(=O)N1OS(=O)(=O)O: 4
- C[C@@H](O)[C@H]1C(=O)N2C(C(=O)O)=C(S[C@@H]3CN[C@H](C(=O)N(C)C)C3)[C@H](C)[C@H]12 [Meropenem, reference compound]: 1

Note: attention shifts to another entry.
Entry CC1(C)[C@H](NC(=O)/C(=N\O[C@@H](COc2ccc3c(c2)CN(C(=N)NCCCCN)C3)C(=O)O)c2csc(N)n2)C(=O)N1OS(=O)(=O)O has what MIC? 0.25

====

test system: Acinetobacter baumannii C394; assay: MIC on clinically isolated bacteria; format: cell-based; settings: Acinetobacter baumannii C394; read-out: Minimum Inhibitory Concentration (MIC)
Measure name: log10 of MIC (log10 of the value in µg/mL)
Reminder: these figures are log10 of reported MIC, in µg/mL before transformation.

Solved entries:
* C[C@@H](O)[C@H]1C(=O)N2C(C(=O)O)=C(S[C@@H]3CN[C@H](C(=O)N(C)C)C3)[C@H](C)[C@H]12 [Meropenem, reference compound] | 1.81
* CC1(C)[C@H](NC(=O)/C(=N\O[C@@H](COc2ccc3c(c2)CN(C(=N)N[C@@H]2CCCNC2)C3)C(=O)O)c2csc(N)n2)C(=O)N1OS(=O)(=O)O | 0.30
* CC1(C)[C@H](NC(=O)/C(=N\O[C@@H](COc2ccc3c(c2)CN(C(=N)NCCN)C3)C(=O)O)c2csc(N)n2)C(=O)N1OS(=O)(=O)O | 0.00
* CC1(C)[C@H](NC(=O)/C(=N\O[C@@H](COc2ccc3c(c2)CN(C(=N)NOCCN)C3)C(=O)O)c2csc(N)n2)C(=O)N1OS(=O)(=O)O | 0.90
* CC1(C)[C@H](NC(=O)/C(=N\O[C@@H](COc2ccc3c(c2)CN(/C(=N\[C@@H]2CCCNC2)N[C@@H]2CCCNC2)C3)C(=O)O)c2csc(N)n2)C(=O)N1OS(=O)(=O)O | 0.60
* C[C@H]1[C@H](NC(=O)/C(=N\OC(C)(C)C(=O)O)c2csc(N)n2)C(=O)N1S(=O)(=O)O [Aztreonam, reference compound] | 1.81

Entry CC1(C)[C@H](NC(=O)/C(=N\O[C@@H](COc2ccc3c(c2)CN(C(=N)N(CCN)CCN)C3)C(=O)O)c2csc(N)n2)C(=O)N1OS(=O)(=O)O has what log10 of MIC? 1.20

Continue with CC1(C)[C@H](NC(=O)/C(=N\O[C@@H](COc2ccc3c(c2)CN(C(=N)NCCCCN)C3)C(=O)O)c2csc(N)n2)C(=O)N1OS(=O)(=O)O 0.30

The values you see were collected from patent US11459323B2.
